// note: IC50 values for Aldo-keto reductase family 1 member B1 (Rattus norvegicus) were reported in different studies
property_measured: IC50 (nM)

(P) O=C(O)Cc1nn(C/C(F)=C/c2cccc(C(F)(F)F)c2)c(=O)c2ccccc12
(Q) O=C1CC2(C(=O)N1)C(=O)N1CCSc3cccc2c31 (centres unmarked)
(R) Cc1sc2c(c1C)c(=O)n(Cc1ccc(Cl)cc1)c(=O)n2CC(=O)O
Exercise: Ranking by IC50 (descending) is requested for the entries above. Output the labels ranked as instructed.
Key: Q, R, P

(A) O=C(O)Cc1nn(C/C=C/c2c(F)ccc(F)c2F)c(=O)c2ccccc12
(B) CC1CCc2cc(Cl)cc3c2N1C(=O)C31CC(=O)NC1=O (centres unmarked)
Exercise: Input pair: A , B . Output: entry with lower IC50. Please reply using the label of the selected record.
Key: A
(A: 8.9 nM, B: 350 nM)

----------
Published IC50 for UniProt:P07943, assembled from different documents, is shown next.
property_measured: IC50 (nM)

// worked examples, IC50 included
{"columns": ["compound", "endpoint_result"],
 "data": [
  ["CCCCc1ccc(-c2nnnn2CC(=O)O)s1", 23],
  ["O=C(O)Cn1nnnc1-c1sccc1NS(=O)(=O)c1ccccc1", 23]
]}

(1) Cc1csc(-c2nnnn2CC(=O)O)c1
(2) Cc1cc(NS(=O)(=O)Cc2ccccc2)cc(C)c1S(=O)(=O)C[N+](=O)[O-]
(3) COc1cc2c3c(c1)C1(CC(=O)NC1=O)C(=O)N3CCO2 (centres unmarked)
Exercise: # sort list by recorded IC50, greatest to least Thanks in advance for listing the labels in the requested order.
Key: 3, 1, 2

----------
pIC50: −log10 of the molar value.
Compiled pIC50 measurements on UniProtKB P07943 taken from the literature.
property_measured: pIC50

Field: example entries. Status: answers known.
{"columns": ["compound", "pIC50"],
 "data": [
  ["COC(=O)Cn1nnnc1-c1ccoc1", 6.13],
  ["O=C(O)Cc1nn(C/C=C/c2cccc(C(F)(F)F)c2F)c(=O)c2ccccc12", 7.99],
  ["CNC(=O)C1CC2(NC(=O)NC2=O)c2cc(F)ccc2O1 (stereo not drawn)", 6.30],
  ["O=C(O)Cn1nnnc1-c1ccc(CBr)s1", 7.60],
  ["CCCCOCc1ccc(-c2nnnn2CC(=O)O)s1", 7.60],
  ["CN(C)C(=O)C1CC2(NC(=O)NC2=O)c2cc(F)ccc2O1 (stereo not drawn)", 5.30],
  ["Cc1c(Br)sc2c1c(=O)n(Cc1ccc(Cl)c(Cl)c1)c(=O)n2CC(=O)O", 7.59]
]}

(1) O=C(O)Cn1nnnc1-c1cccc2ccccc12
(2) COC(=O)Cn1nnnc1-c1ccsc1SC
Exercise: Between the two listed entries 1 and 2 , which has its pIC50 at the higher number? Provide the label of your selected option as the answer.
Key: 1

----------
Header: IC50 / Aldo-keto reductase family 1 member B1 (Rattus norvegicus, UniProt P07943) / multiple publications
property_measured: IC50 (nM)

Known results for compounds:
{"columns": ["compound", "system_name", "value_unit", "IC50"],
 "data": [
  ["CC1CCc2cccc3c2N1C(=O)C31CC(=O)NC1=O (centres unmarked)", "Aldo-keto reductase family 1 member B1 (Rattus norvegicus, UniProt P07943)", "nM", 9000],
  ["Cc1cc(NS(=O)(=O)c2ccc(F)cc2)cc(C)c1S(=O)(=O)C[N+](=O)[O-]", "Aldo-keto reductase family 1 member B1 (Rattus norvegicus, UniProt P07943)", "nM", 8],
  ["Cc1cc(NS(=O)(=O)c2ccccc2C(F)(F)F)cc(C)c1S(=O)(=O)C[N+](=O)[O-]", "Aldo-keto reductase family 1 member B1 (Rattus norvegicus, UniProt P07943)", "nM", 7]
]}

(1) O=C(O)Cc1nn(C/C=C/c2c(F)ccc(C(F)(F)F)c2F)c(=O)c2ccccc12
(2) O=C(Cn1nnnc1-c1ccsc1)OCCCCCO
Exercise: Lower value of IC50 belongs to which: 1 or 2 ? Indicate which entry you chose by stating its label.
Key: 1
(1: 8.6 nM, 2: 1300 nM)

----------
pIC50: −log10 of the molar value.
pIC50 for UniProt P07943 - collated from the literature.
property_measured: pIC50

Use the examples below as a reference point.
{"columns": ["compound", "property_measured", "endpoint_result"],
 "data": [
  ["O=C(O)Cn1nnnc1-c1ccc(Cc2ccccc2)s1", "pIC50", 7.70],
  ["O=C(O)CN1C(=S)CSc2cc(F)ccc21", "pIC50", 7.09],
  ["CS(=O)(=O)c1sccc1-c1nnnn1CC(=O)O", "pIC50", 6.28]
]}

(I) COc1ccc2c(-c3nnnn3CC(=O)O)cccc2c1C(F)(F)F
(II) O=C(O)Cn1nnnc1-c1ccc(S(=O)(=O)N2CCCCC2)s1
Exercise: Out of I and II , name the one with the higher pIC50. Pick one and reply with its label.
Key: I
(I: 6.89, II: 6.64)

(a) Cc1cc(NS(=O)(=O)c2ccc(F)c(F)c2)cc(C)c1S(=O)(=O)C[N+](=O)[O-]
(b) CCOC(=O)Cn1nnnc1-c1ccsc1
Exercise: # argmax over pIC50 for candidates a and b Identify your selection by its label.
Key: a
(a: 8.15, b: 6.24)

----------
Study the reported IC50 values for Aldo-keto reductase family 1 member B1 (Rattus norvegicus) given below; they originate from different publications.
property_measured: IC50 (µM)

(I) CCCCOc1ccsc1-c1nnnn1CC(=O)O
(II) O=C(O)Cn1c(=O)n(Cc2ccc(Br)cc2F)c(=O)c2ccsc21
Exercise: Which of the two gives a bigger number for IC50: I or II ? Select an item and report its label.
Key: I

(I) Cc1csc2c1c(=O)n(Cc1ccc(Cl)c(Cl)c1)c(=O)n2CC(=O)O
(II) O=C(O)CN1C(=S)CSc2ccc(F)cc21
(III) CCCCNS(=O)(=O)c1ccc(-c2nnnn2CC(=O)O)cc1
(IV) CCN(CC)S(=O)(=O)c1ccc(-c2nnnn2CC(=O)O)s1
(V) Cc1cc2c3c(c1)C1(CC(=O)NC1=O)C(=O)N3CCC2 (stereo not shown)
Exercise: Highest IC50 first, then in falling order down to the smallest. Labels, ranked as asked.
Key: V, IV, III, II, I

(1) CSc1occc1-c1nnnn1CC(=O)O
(2) Cc1ccccc1CC(=O)Nc1ccc(C(=O)C[N+](=O)[O-])c(C)c1
(3) CSc1ccc(-c2nnnn2CC(=O)O)o1
Exercise: Hey, quick one: sort these by IC50, largest value first please. Provide your answer as the labels ordered per the instruction.
Key: 3, 1, 2
(3: 0.11 µM, 1: 0.035 µM, 2: 0.006 µM)

(a) Cc1ccc(-c2nnnn2CC(=O)O)cc1[N+](=O)[O-]
(b) O=C(O)Cn1nnnc1-c1ccc(Oc2ccccc2)cc1
(c) Cc1cc(NS(=O)(=O)c2ccccc2)cc(C)c1S(=O)(=O)C[N+](=O)[O-]
Exercise: Sort (3 compounds) by IC50: min first. Please express your ranking as an ordered list of the labels.
Key: c, b, a
(c: 0.008 µM, b: 0.028 µM, a: 0.042 µM)

----------
Values of IC50 for UniProt P07943, collected from a number of published sources:
property_measured: IC50 (nM)

Worked set:
{"columns": ["compound", "property_measured", "value_unit", "endpoint_result"],
 "data": [
  ["O=C(O)Cc1nn(C/C=C/c2c(F)c(F)cc(F)c2F)c(=O)c2ccccc12", "IC50", "nM", 9.6],
  ["COc1cccc(-c2nnnn2CC(=O)O)c1", "IC50", "nM", 28]
]}

(I) CSc1ccc(-c2nnnn2CC(=O)O)cc1
(II) O=C(O)CN1C(=S)CSc2ccccc21
(III) Cc1cc(NS(=O)(=O)c2cccc(F)c2)cc(C)c1S(=O)(=O)C[N+](=O)[O-]
(IV) O=C1CC2(C(=O)N1)C(=O)N1CCOc3c(F)c(F)cc2c31 (stereo not drawn)
(V) CCCCc1ccc(-c2nnnn2CC(=O)O)cc1
Exercise: rank_up(items): orders items by reported IC50 in ascending numerical order. Reply format: the labels, ordered as requested.
Key: III, V, I, II, IV
(III: 7 nM, V: 17 nM, I: 37 nM, II: 54 nM, IV: 700 nM)

(1) NNC(=O)[C@@H]1C[C@]2(NC(=O)NC2=O)c2cc(F)ccc2O1
(2) CCCN(CCC)C(=O)c1ccc(-c2nnnn2CC(=O)O)cc1
(3) Cc1cc(NS(=O)(=O)c2cc(F)cc(F)c2)cc(C)c1S(=O)(=O)C[N+](=O)[O-]
(4) O=C(O)Cn1nnnc1-c1sccc1O
Exercise: Put these in order: smallest IC50 first, largest last. Dear reader, please state the labels in the requested order.
Key: 3, 4, 1, 2
(3: 8 nM, 4: 20 nM, 1: 38 nM, 2: 73 nM)
